Origin of measurements: patent US20250282885A1

- TGT: T1, human Sdc2 (human, UniProt P34741 19-144, limits assumed)
- T1 construct: Antigen of the Octet tandem binning, loaded on biosensors at 100 nM; also called huSdc2; hSdc2
- ASSAY METHOD TEXT: Octet tandem binning; saturating Ab m8 19844-R4M-P1-B01 (marked non-binding ligand)
hey, just use True if measured raw competing-Ab binding signal is less than 0.4, otherwise False

The following binders have reported results that may help.
- BINDER: "8-G17-A (antibody, V domains shown, PentaMice hybridoma clone, made recombinantly in CHO cells) VH: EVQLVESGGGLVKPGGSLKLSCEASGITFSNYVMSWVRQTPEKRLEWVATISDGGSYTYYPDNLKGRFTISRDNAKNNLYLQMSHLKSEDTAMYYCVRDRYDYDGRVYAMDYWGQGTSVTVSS VL: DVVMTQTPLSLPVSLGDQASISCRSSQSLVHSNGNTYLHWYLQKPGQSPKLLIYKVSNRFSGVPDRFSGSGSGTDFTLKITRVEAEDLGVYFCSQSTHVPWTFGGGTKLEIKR"
  GROUP LABEL: "False"
- BINDER: "R4M-P1-A10 (antibody, human IgG1, kappa, V domains shown) VH: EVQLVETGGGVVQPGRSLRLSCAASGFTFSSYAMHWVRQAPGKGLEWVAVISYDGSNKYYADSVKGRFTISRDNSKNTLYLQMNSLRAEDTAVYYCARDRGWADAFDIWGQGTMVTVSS VL: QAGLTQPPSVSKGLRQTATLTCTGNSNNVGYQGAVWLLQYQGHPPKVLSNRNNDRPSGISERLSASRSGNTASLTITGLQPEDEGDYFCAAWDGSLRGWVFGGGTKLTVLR"
  GROUP LABEL: "True"
- BINDER: "R3-P3-C11 (antibody, human IgG1, kappa, V domains shown, human IgG1 kappa from the phage campaign) VH: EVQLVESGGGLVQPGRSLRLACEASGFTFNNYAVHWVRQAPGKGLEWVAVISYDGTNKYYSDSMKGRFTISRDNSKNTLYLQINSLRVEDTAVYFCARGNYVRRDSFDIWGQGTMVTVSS VL: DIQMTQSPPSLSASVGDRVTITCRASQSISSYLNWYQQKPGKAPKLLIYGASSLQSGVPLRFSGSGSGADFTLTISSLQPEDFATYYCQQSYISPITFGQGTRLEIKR"
  GROUP LABEL: "False"

Exam item: Say whether its raw competing-Ab binding signal is strictly beneath 0.4. Entry: R4M-P3-E06 (antibody, human IgG1, kappa, V domains shown, human IgG1 kappa from the phage campaign) VH: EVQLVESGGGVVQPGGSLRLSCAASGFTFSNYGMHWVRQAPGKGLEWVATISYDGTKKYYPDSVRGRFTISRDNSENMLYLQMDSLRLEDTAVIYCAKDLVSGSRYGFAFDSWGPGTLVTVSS VL: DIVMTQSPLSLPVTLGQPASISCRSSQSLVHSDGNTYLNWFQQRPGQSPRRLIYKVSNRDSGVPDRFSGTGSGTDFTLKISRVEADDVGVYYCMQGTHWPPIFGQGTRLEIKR
Marked response: True

Exam item: Say whether its raw competing-Ab binding signal is strictly beneath 0.4. Entry: R3-P3-E09 (antibody, human IgG1, kappa, V domains shown, human IgG1 kappa from the phage campaign) VH: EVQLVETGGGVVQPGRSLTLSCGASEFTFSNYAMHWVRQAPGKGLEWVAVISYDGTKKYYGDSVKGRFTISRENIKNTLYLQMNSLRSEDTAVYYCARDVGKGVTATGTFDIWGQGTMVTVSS VL: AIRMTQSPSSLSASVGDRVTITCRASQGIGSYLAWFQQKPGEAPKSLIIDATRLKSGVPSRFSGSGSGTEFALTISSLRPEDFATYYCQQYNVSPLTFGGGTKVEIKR
Marked response: True

Exam item: Say whether its raw competing-Ab binding signal is strictly beneath 0.4. Entry: 6-N03-A (antibody, mouse IgG1, kappa, V domains shown) VH: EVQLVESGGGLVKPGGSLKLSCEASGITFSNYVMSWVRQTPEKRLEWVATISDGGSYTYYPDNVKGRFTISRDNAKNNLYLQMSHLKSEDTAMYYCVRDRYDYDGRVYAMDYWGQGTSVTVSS VL: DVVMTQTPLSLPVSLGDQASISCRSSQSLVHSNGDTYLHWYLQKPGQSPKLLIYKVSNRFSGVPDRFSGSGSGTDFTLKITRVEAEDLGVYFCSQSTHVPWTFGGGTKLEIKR
Marked response: False

Exam item: Say whether its raw competing-Ab binding signal is strictly beneath 0.4. Entry: 19838-6-N03-A (antibody, IgG1, V domains shown) VH: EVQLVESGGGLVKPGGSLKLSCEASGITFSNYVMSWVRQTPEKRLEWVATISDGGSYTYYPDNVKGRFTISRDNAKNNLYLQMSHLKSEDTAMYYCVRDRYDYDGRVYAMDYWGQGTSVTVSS VL: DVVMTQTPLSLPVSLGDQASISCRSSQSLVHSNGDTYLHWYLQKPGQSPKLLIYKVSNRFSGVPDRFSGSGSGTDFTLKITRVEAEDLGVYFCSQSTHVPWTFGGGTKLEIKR
Marked response: True

Exam item: Say whether its raw competing-Ab binding signal is strictly beneath 0.4. Entry: R4M-P3-A12 (antibody, human IgG1, kappa, V domains shown) VH: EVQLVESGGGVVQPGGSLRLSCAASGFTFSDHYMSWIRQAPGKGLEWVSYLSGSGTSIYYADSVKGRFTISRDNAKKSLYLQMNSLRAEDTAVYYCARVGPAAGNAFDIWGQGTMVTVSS VL: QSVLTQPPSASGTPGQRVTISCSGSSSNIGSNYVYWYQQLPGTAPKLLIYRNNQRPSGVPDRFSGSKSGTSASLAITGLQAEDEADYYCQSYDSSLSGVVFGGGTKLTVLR
Marked response: True
